# system.tested: D(2) dopamine receptor (Homo sapiens, UniProt P14416)
# Sequence (P14416 whole entry): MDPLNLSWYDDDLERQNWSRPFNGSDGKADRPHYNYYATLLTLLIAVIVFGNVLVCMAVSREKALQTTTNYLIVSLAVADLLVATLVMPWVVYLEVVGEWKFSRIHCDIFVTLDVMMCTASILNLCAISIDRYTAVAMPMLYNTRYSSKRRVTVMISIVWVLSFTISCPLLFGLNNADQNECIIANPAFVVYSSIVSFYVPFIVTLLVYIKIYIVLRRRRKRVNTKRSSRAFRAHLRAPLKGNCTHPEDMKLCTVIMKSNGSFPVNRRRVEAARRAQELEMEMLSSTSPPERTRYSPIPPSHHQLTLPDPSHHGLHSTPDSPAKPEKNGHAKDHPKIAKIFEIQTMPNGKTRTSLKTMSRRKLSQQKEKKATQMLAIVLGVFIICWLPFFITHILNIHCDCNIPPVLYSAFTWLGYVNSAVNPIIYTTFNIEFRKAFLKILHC
# test.description: Displacement of [3H]spiperone from human D2L receptor expressed in CHO cells at 100 nM
# Type: cell-based
Entries annotated with measured Activity
Express the result in % but write the number alone.

Look over these answered cases.
CC(C)C(=O)NC1CCc2cc(CCN3CCN(c4nsc5ccccc45)CC3)ccc21 (centres undefined) = 17
O=C(NC1CCc2cc(CCN3CCN(c4nsc5ccccc45)CC3)ccc21)C1CC1 (centres undefined) = 27
CCC(=O)NC1CCc2cc(CCN3CCN(c4nsc5ccccc45)CC3)ccc21 (centres undefined) = 21

Then there is this molecule:
Query: // query Activity value for entry CCCC(=O)NC1CCc2cc(CCN3CCN(c4nsc5ccccc45)CC3)ccc21 (centres undefined)
Response: 21

###

# system.tested: UniProtKB P14416
Lab note: compare Ki with 20 nM, writing Yes if less and No if equal or more.

Cc1ccc(C(=O)NC2CCc3ccc(CCN4CCN(c5nsc6ccccc56)CC4)cc32)cc1 (stereo unspecified) = Yes

Query: # check: Ki < 20 nM for CC(C)C(=O)NC1CCc2ccc(CCN3CCN(c4nsc5ccccc45)CC3)cc21 (stereo unspecified)
Response: No

Query: # check: Ki < 20 nM for CCCC(=O)NC1CCc2ccc(CCN3CCN(c4nsc5ccccc45)CC3)cc21 (stereo unspecified)
Response: No

Query: # check: Ki < 20 nM for O=C(NC1CCc2ccc(CCN3CCN(c4nsc5ccccc45)CC3)cc21)c1ccc(F)cc1 (stereo unspecified)
Response: Yes

Query: # check: Ki < 20 nM for O=C(NC1CCc2ccc(CCN3CCN(c4nsc5ccccc45)CC3)cc21)c1ccco1 (stereo unspecified)
Response: Yes

Query: # check: Ki < 20 nM for O=C(NC1CCc2ccc(CCN3CCN(c4nsc5ccccc45)CC3)cc21)C(F)(F)F (stereo unspecified)
Response: Yes

Query: # check: Ki < 20 nM for NC1CCc2ccc(CCN3CCN(c4nsc5ccccc45)CC3)cc21 (stereo unspecified)
Response: No

Query: # check: Ki < 20 nM for CCC(=O)NC1CCc2ccc(CCN3CCN(c4nsc5ccccc45)CC3)cc21 (stereo unspecified)
Response: No

Query: # check: Ki < 20 nM for O=C(NC1CCc2cc(CCN3CCN(c4nsc5ccccc45)CC3)ccc21)C(F)(F)F (stereo unspecified)
Response: Yes

Query: # check: Ki < 20 nM for O=C(NC1CCc2cc(CCN3CCN(c4nsc5ccccc45)CC3)ccc21)c1cccnc1 (stereo unspecified)
Response: Yes

Query: # check: Ki < 20 nM for O=C(Cc1ccccc1)NC1CCc2ccc(CCN3CCN(c4nsc5ccccc45)CC3)cc21 (stereo unspecified)
Response: No

###

Target protein (sequence): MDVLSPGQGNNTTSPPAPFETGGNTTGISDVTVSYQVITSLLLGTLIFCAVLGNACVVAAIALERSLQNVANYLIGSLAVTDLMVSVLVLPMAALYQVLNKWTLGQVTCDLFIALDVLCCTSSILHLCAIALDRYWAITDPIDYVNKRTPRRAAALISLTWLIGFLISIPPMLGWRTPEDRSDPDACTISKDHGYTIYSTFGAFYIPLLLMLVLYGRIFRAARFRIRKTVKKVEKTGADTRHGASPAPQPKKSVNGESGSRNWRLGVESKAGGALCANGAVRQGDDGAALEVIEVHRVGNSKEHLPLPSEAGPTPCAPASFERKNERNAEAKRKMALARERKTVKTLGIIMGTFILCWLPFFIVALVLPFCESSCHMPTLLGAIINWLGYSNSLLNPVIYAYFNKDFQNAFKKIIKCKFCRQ
property.label: pKi
Please report pKi as the negative decimal logarithm of the molar concentration, giving only the number.

O=C(Cc1ccccc1)NC1CCc2ccc(CCN3CCN(c4nsc5ccccc45)CC3)cc21 (stereo unspecified) = 7.68
CC(=O)NC1CCc2cc(CCN3CCN(c4nsc5ccccc45)CC3)ccc21 (stereo unspecified) = 8.96
CC(C)C(=O)NC1CCc2ccc(CCN3CCN(c4nsc5ccccc45)CC3)cc21 (stereo unspecified) = 7.92
CCCC(=O)NC1CCc2cc(CCN3CCN(c4nsc5ccccc45)CC3)ccc21 (stereo unspecified) = 8.70

Query: // query pKi value for entry O=C(NC1CCc2cc(CCN3CCN(c4nsc5ccccc45)CC3)ccc21)C1CC1 (stereo unspecified)
Response: 8.70

Query: // query pKi value for entry O=C(NC1CCc2cc(CCN3CCN(c4nsc5ccccc45)CC3)ccc21)C(F)(F)F (stereo unspecified)
Response: 9.00

Query: // query pKi value for entry CCC(=O)NC1CCc2cc(CCN3CCN(c4nsc5ccccc45)CC3)ccc21 (stereo unspecified)
Response: 8.70

Query: // query pKi value for entry O=C(NC1CCc2ccc(CCN3CCN(c4nsc5ccccc45)CC3)cc21)c1ccno1 (stereo unspecified)
Response: 8.19

Query: // query pKi value for entry NC1CCc2ccc(CCN3CCN(c4nsc5ccccc45)CC3)cc21 (stereo unspecified)
Response: 8.70

Query: // query pKi value for entry Cc1ccc(C(=O)NC2CCc3ccc(CCN4CCN(c5nsc6ccccc56)CC4)cc32)cc1 (stereo unspecified)
Response: 7.55

Query: // query pKi value for entry O=C(NC1CCc2ccc(CCN3CCN(c4nsc5ccccc45)CC3)cc21)c1ccccc1 (stereo unspecified)
Response: 7.38

###

Below are log10 of Ki values recorded for 5-hydroxytryptamine receptor 2A (Homo sapiens).
Note: values are log10 of Ki expressed in nM.

O=C(NC1CCc2cc(CCN3CCN(c4nsc5ccccc45)CC3)ccc21)C1CC1 (stereo unspecified) = -0.35
CC(C)C(=O)NC1CCc2ccc(CCN3CCN(c4nsc5ccccc45)CC3)cc21 (stereo unspecified) = -0.12

Query: GET /values?readout=log10 of Ki&system=5-hydroxytryptamine receptor 2A (Homo sapiens)&item= Cc1ccc(C(=O)NC2CCc3ccc(CCN4CCN(c5nsc6ccccc56)CC4)cc32)cc1 (stereo unspecified)
Response: 0.48

Query: GET /values?readout=log10 of Ki&system=5-hydroxytryptamine receptor 2A (Homo sapiens)&item= CCCC(=O)NC1CCc2cc(CCN3CCN(c4nsc5ccccc45)CC3)ccc21 (stereo unspecified)
Response: -0.30

Query: GET /values?readout=log10 of Ki&system=5-hydroxytryptamine receptor 2A (Homo sapiens)&item= CC(C)C(=O)NC1CCc2cc(CCN3CCN(c4nsc5ccccc45)CC3)ccc21 (stereo unspecified)
Response: -0.19

Query: GET /values?readout=log10 of Ki&system=5-hydroxytryptamine receptor 2A (Homo sapiens)&item= O=C(NC1CCc2ccc(CCN3CCN(c4nsc5ccccc45)CC3)cc21)C1CC1 (stereo unspecified)
Response: -0.52

Query: GET /values?readout=log10 of Ki&system=5-hydroxytryptamine receptor 2A (Homo sapiens)&item= CC(=O)NC1CCc2cc(CCN3CCN(c4nsc5ccccc45)CC3)ccc21 (stereo unspecified)
Response: -0.48

Query: GET /values?readout=log10 of Ki&system=5-hydroxytryptamine receptor 2A (Homo sapiens)&item= O=C(NC1CCc2cc(CCN3CCN(c4nsc5ccccc45)CC3)ccc21)C(F)(F)F (stereo unspecified)
Response: -0.82

Query: GET /values?readout=log10 of Ki&system=5-hydroxytryptamine receptor 2A (Homo sapiens)&item= CCC(=O)NC1CCc2cc(CCN3CCN(c4nsc5ccccc45)CC3)ccc21 (stereo unspecified)
Response: -0.60

Query: GET /values?readout=log10 of Ki&system=5-hydroxytryptamine receptor 2A (Homo sapiens)&item= O=C(NC1CCc2ccc(CCN3CCN(c4nsc5ccccc45)CC3)cc21)c1ccno1 (stereo unspecified)
Response: -1.10

Query: GET /values?readout=log10 of Ki&system=5-hydroxytryptamine receptor 2A (Homo sapiens)&item= O=C(NC1CCc2ccc(CCN3CCN(c4nsc5ccccc45)CC3)cc21)c1ccco1 (stereo unspecified)
Response: -0.26

Each recorded value in this set is attributed to ChEMBL document CHEMBL1140829.
